Give measured folding stability dG for each item. Keep answers brief.
B1: HEEH_KT_rd6_0007 (parent)
chain: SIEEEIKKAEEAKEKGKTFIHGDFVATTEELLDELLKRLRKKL

Variants of: B1
Experiment: folding stability dG (cDNA display proteolysis); higher = more stable
Conditions: PBS, room temperature
Reply with just the number (in kcal/mol).

input: GET /values?readout=folding stability dG&item= A9M
output: 0.926

input: GET /values?readout=folding stability dG&item= K8S
output: 0.904

input: GET /values?readout=folding stability dG&item= K7Y
output: 0.923

This collection of values is drawn from the MegaScale stability set (Tsuboyama et al. 2023).
